system: Cryptococcus neoformans; experiment: Antifungal activity against Cryptococcus neoformans ATCC 32719 assessed as fluconazole MIC incubated for 72 hrs by checker board assay; type: functional
VALUE KIND: MIC (µg/mL)
Answers are plain numbers, in µg/mL.

Reference set (3 entries):
[
  {
    "COMPOUND": "O=C(/C=C/C(=O)N1CCCC12Cc1ccccc1NC2=O)Nc1ccc(F)cc1 (centres undefined)",
    "MIC [µg/mL]": 4
  },
  {
    "COMPOUND": "O=C(/C=C/C(=O)N1CCCC12Cc1ccccc1NC2=O)Nc1ccccc1[N+](=O)[O-] (centres undefined)",
    "MIC [µg/mL]": 4
  },
  {
    "COMPOUND": "O=C(/C=C/C(=O)N1CCCC12Cc1ccccc1NC2=O)Nc1ccc(Cl)c(F)c1 (centres undefined)",
    "MIC [µg/mL]": 8
  }
]

The record that follows has no MIC shown yet.
Which MIC is reported for this compound? O=C(/C=C/C(=O)N1CCCC12Cc1ccccc1NC2=O)Nc1cccc([N+](=O)[O-])c1 (centres undefined)
1
